- target.desc: T1, corticotropin releasing factor 2 receptor
- T1 sequence (Q13324 whole entry, species assumed, looked up): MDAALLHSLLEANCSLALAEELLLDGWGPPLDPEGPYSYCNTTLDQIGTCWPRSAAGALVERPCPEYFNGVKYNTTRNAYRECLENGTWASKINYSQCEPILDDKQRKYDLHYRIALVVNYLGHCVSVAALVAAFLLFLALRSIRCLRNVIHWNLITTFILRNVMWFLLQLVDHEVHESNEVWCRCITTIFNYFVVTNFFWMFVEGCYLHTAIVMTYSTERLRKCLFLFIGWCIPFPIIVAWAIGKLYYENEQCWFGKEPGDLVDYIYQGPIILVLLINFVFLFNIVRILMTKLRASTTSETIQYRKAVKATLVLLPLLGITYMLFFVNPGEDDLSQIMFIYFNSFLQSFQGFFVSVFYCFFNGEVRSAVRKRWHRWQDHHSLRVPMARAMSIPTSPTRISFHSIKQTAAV
- assay: cell-based or functional assay
Ends that are not written are not given here.
Examples of binders with documented CRF2R Emax follow.
The figure you give is taken to be in %; do not add the unit.

A selection of reference data follows.
INSERT INTO measurements (binder, unit_abbreviation, result_value) VALUES
  ('IVLSLDVPIGLLQILLEQAARAAREQATTNARILARV-NH2 [SEQ ID NO 135]', '%', 76),
  ('SQEPPISLDLPIGLLREVLEMTKADQLAQQAHSNRKLLDIA-NH2 [SEQ ID NO 93]', '%', 6.4);

Quick one: CRF2R Emax of ZGPPISIDLPIYLLRKMIEIEKQEKEKQQAANNRLLLDTI (C-terminal amide) [SEQ ID NO 79] ?
100

Looking for the measured CRF2R Emax of SQEPPISLDLPLELLREVLEMTKADQLAQQAHSNRKLLDIA-NH2 [SEQ ID NO 89] , can you help?
12.7

Which CRF2R Emax is reported for this binder? ZGPPISIDLPLELLRKMIEIEKQEKEKQQATTNARILARV (C-terminal amide) [SEQ ID NO 143]
85.5

Please give the measured CRF2R Emax for this binder: IVLSLDVPIGLLQILLEQTKANAAREQATTVARILARV-NH2 [SEQ ID NO 116]
26.4
